- target entity: hQ23 (HEK-293 cell line stably transfected with one of the members of the KCNQ family) (Homo sapiens, UniProt O43525+O43526)
- Construct: expressed in transfected cells; host or cells: HEK-293, stably transfected
- Sequence (O43526 whole entry): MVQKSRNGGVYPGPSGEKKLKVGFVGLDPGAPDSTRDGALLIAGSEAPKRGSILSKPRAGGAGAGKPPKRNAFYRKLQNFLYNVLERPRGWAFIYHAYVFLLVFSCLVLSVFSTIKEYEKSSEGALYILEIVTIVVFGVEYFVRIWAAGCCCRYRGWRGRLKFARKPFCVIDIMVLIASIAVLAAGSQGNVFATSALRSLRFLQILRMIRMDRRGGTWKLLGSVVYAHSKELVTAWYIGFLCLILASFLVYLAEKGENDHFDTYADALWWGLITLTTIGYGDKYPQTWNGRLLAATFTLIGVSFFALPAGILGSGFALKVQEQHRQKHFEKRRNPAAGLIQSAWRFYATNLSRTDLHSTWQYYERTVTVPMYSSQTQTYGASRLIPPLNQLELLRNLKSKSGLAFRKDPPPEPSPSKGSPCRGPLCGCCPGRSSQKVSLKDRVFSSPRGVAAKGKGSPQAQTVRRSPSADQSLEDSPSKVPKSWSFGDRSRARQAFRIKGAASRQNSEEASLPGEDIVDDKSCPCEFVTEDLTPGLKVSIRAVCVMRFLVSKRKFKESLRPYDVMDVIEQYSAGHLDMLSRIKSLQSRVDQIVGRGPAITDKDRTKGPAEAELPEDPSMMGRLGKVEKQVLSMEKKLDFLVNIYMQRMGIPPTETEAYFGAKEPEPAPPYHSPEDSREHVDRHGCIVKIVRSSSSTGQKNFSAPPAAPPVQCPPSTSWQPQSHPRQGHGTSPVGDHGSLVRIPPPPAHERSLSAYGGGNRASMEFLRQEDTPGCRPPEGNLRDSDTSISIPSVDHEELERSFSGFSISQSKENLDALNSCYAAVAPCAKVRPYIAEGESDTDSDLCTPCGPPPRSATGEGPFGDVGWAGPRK
- Sequence (O43525 whole entry): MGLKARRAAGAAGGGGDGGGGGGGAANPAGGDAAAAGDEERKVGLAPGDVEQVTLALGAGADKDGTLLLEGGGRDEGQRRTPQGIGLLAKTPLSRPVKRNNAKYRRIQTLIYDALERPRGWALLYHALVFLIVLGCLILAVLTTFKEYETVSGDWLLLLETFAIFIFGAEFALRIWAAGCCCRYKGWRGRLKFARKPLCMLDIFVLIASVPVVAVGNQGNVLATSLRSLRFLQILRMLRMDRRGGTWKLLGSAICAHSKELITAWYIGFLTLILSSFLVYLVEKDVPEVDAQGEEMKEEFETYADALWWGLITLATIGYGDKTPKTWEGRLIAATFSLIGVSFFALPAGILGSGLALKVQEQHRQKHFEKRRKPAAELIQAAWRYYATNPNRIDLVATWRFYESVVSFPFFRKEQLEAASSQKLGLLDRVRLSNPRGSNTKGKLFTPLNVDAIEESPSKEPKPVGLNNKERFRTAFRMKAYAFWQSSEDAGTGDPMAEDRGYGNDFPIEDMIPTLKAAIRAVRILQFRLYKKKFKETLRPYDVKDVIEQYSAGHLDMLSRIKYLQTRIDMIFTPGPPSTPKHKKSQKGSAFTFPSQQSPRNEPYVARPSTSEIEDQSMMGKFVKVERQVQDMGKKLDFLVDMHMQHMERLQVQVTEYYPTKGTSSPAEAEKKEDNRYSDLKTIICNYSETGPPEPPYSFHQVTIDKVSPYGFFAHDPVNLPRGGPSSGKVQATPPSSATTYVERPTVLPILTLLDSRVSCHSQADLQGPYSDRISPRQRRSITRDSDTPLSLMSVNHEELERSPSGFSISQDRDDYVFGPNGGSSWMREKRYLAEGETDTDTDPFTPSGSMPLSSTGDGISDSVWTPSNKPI
- procedure text: Thallium flux assay for KCNQ channel blockers (FLIPR, BTC dye)
- Type: cell-based
- condition summary: hQ23 cells, thallium flux
pEC50: −log10 of the molar value.
attribute measured: pEC50

[P] CC1CCCN(c2ncc(C(=O)NCc3ccc(Cl)cc3Cl)c(C3(c4ccccc4)CCCC3)n2)C1 (stereo not shown)
[Q] CC1CCN(c2ncc(C(=O)N3CCc4ccccc4C3)c(C3(c4ccc(F)cc4)CCCC3)n2)CC1
[R] CC1CCN(c2ncc(C(=O)NCc3cc(F)cc(C(F)(F)F)c3)c(C3(c4ccc(Cl)cc4)CCCC3)n2)CC1
[S] O=C(NCc1ccc2c(c1)OCO2)c1cnc(NC2CC2)nc1C1(c2ccc(Cl)cc2)CCCC1
Task: Please list these in order of increasing pEC50. Thank you! Order the labels as requested and give them as your answer.
Output: S, Q, P, R
(S: 6.14, Q: 6.63, P: 7.19, R: 7.92)

[P] CCC(C)Nc1ncc(C(=O)NCc2ccc(F)cc2F)c(C2(c3ccccc3)CCCC2)n1 (stereo not shown)
[Q] CC1CCN(c2ncc(C(=O)NCc3ccc(F)cc3F)c(C3(c4ccc(Cl)cc4)CCCC3)n2)CC1
Task: // select label with min value of measured pEC50 from [ P , Q ] Please indicate the selected item by its label.
Output: P
(P: 7.21, Q: 7.80)
